target: BAZ2A bromodomain (Homo sapiens); construct: made in house; experiment: AlphaScreen competition binding assay (BAZ2A bromodomain binding to acetylated peptide); conditions: single dose 100 μM; IC50 not determined; read-out: Residual activity when tested in single dose
Sequence (Q9UIF9 1793-1897 limits assumed): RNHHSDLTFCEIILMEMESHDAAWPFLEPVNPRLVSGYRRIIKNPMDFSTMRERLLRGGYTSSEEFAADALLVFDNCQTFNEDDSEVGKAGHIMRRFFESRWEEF
experimental-endpoint: remaining binding at 100 µM

For the compound shown here, CCc1c(-c2csc(N3CCN(Cc4ccsc4S(N)(=O)=O)CC3)n2)[nH]c(C)c1C(C)=O , give the reported remaining binding at 100 µM.
> 50%

Item under review: CCc1c(-c2csc(N3CCNCC3C(=O)NCc3ncoc3C(C)C)n2)[nH]c(C)c1C(C)=O (stereo not drawn) . Reported remaining binding at 100 µM?
> 50%

Here is another compound to look at.
May I ask what remaining binding at 100 µM has been recorded for CCc1c(-c2csc(N3CCNCC3C(=O)NCC3CC4(CCC4)C3)n2)[nH]c(C)c1C(C)=O (stereo not drawn) ?
> 50%

Every entry's value here was drawn from paper PMC9465710.
